Record form. Attribute: IC50. Fill in for each entry.
targetOrTestSystem: EGFR (human) (UniProt P00533)
Sequence (P00533 whole entry, looked up): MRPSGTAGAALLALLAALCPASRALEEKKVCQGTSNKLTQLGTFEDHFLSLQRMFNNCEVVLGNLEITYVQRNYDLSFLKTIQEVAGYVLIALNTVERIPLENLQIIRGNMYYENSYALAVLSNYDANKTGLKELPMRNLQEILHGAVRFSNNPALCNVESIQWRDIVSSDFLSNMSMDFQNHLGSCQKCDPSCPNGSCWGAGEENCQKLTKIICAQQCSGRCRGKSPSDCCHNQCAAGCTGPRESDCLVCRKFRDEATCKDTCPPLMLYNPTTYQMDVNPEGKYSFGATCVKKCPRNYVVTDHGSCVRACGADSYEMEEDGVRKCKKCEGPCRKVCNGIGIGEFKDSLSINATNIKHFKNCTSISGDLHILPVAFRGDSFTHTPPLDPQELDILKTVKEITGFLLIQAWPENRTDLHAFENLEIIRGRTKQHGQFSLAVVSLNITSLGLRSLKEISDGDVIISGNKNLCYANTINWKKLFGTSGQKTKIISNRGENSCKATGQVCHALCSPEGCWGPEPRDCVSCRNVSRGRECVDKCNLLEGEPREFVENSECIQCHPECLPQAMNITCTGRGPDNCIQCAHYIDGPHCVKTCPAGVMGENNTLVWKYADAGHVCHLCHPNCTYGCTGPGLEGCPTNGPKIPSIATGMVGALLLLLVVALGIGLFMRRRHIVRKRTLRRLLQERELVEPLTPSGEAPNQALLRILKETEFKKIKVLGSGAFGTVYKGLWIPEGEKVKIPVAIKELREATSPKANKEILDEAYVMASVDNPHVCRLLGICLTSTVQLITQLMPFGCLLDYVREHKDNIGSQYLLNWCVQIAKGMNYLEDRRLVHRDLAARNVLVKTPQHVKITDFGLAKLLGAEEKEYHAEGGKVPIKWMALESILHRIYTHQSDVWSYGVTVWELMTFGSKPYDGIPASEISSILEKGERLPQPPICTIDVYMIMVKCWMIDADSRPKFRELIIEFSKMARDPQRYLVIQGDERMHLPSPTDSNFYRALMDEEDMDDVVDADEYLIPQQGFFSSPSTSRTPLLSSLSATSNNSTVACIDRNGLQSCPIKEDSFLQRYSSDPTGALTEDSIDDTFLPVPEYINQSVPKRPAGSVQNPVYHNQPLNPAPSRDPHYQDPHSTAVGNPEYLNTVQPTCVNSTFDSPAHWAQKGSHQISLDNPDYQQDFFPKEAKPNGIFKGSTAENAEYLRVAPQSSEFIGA
assayConditions: mda435
Answers are plain numbers, in µg/mL.

[[record]]
compoundstructurestring = "CN(C)c1cc[n+](-c2cc3c(Nc4cccc(Br)c4)c(C#N)cnc3cn2)cc1"
unitstext = "µg/mL"
resultvalue = 47


Okay, here is my list. What is IC50 for each of these?
1. COc1ccc(CNc2cc3c(Nc4cccc(Br)c4)c(C#N)cnc3cn2)cc1
2. CN(C)C/C=C/C(=O)Nc1cc2c(Nc3cccc(Br)c3)c(C#N)cnc2cn1

A)
1: 2.4; 2: 0.464
